Where do the numbers come from? From ChEMBL document CHEMBL4138103.

test: Cytotoxicity against human SH-SY5Y cells assessed as cell survival at 100 uM after 24 hrs by MTT assay relative to control; assay type: cell-based; details: read-out: Survival
Each record here notes measured viability at 24 h, 100 µM.
Answer with a number only, understood to be in %.

Worked examples, 8 compounds total:
| chemical-structure | viability at 24 h, 100 µM [%] |
| --- | --- |
| COc1cc(/C=C/C(=O)c2ccc3c(c2)OCO3)ccc1O | 16.3 |
| CC(=O)c1ccc(/C=C/c2ccc3c(c2)OCO3)cc1 | 70.3 |
| N#Cc1ccc(/C=C/c2ccc3c(c2)OCO3)cc1 | 110 |
| COc1ccc(/C=C/c2ccc(N)c(F)c2)cc1 | 80 |
| COc1cc(/C=C/c2ccc(O)cc2)cc(OC)c1 | -0.58 |
| COc1ccc(C(=O)/C=C/c2ccc(O)c(OC)c2)cc1 | 13.3 |
| C(=C\c1ccc2c(c1)OCO2)/c1ccc(OCc2ccccc2)cc1 | 67.3 |
| COc1ccc(/C=C/c2ccc(NC(C)=O)cc2)cc1 | 70 |

Name the recorded viability at 24 h, 100 µM of the item "COc1ccc(/C=C/C(=O)c2ccc3c(c2)OCO3)cc1O" in your answer. 44.7

Name the recorded viability at 24 h, 100 µM of the item "CCCCCOc1ccc(C#Cc2ccc3c(c2)OCO3)cc1" in your answer. 69.8

Name the recorded viability at 24 h, 100 µM of the item "C(=C\c1ccc2c(c1)OCO2)/c1ccncc1" in your answer. 8.43

Name the recorded viability at 24 h, 100 µM of the item "CCCCCc1ccc(C#Cc2ccc(OCc3ccccc3)cc2)cc1" in your answer. 62.6

Name the recorded viability at 24 h, 100 µM of the item "Oc1ccc(/C=C/c2cc(C(F)(F)F)cc(C(F)(F)F)c2)cc1" in your answer. -4.81

---

experiment: Cytotoxicity against human SH-SY5Y cells assessed as cell survival at 1000 uM after 24 hrs by MTT assay relative to control; type: cell-based; settings: read-out: Survival
Each record here notes measured viability at 24 h, 1000 µM.
Answer with a number only, understood to be in %.

Worked examples, 3 compounds total:
| chemical-structure | viability at 24 h, 1000 µM (%) |
| --- | --- |
| C(#Cc1cccs1)c1ccc2c(c1)OCO2 | 17.7 |
| COc1ccc(C(=O)/C=C/c2ccc(O)c(OC)c2)cc1 | 165 |
| Nc1ccc(/C=C/c2ccc3c(c2)OCO3)cc1 | 32.2 |

Name the recorded viability at 24 h, 1000 µM of the item "COc1ccc(/C=C/c2ccc(Cl)cc2)cc1OC" in your answer. 56.4

---

assay: Cytotoxicity against human SH-SY5Y cells assessed as cell survival at 1000 uM after 24 hrs by MTT assay relative to control; assay type: cell-based; details: read-out: Survival
reported-endpoint: viability at 24 h, 1000 µM
# output: numeric value plus its unit

Worked examples, 6 compounds total:
| chemical-structure | viability at 24 h, 1000 µM |
| --- | --- |
| CC(=O)c1ccc(/C=C/c2ccc3c(c2)OCO3)cc1 | 53.9% |
| COc1ccc(/C=C/c2ccc(N)cc2)cc1OC | 50.4% |
| C(=C\c1ccc2c(c1)OCO2)/c1ccc(OCc2ccccc2)cc1 | 80.6% |
| CCCC(=O)Nc1ccc(/C=C/c2ccc3c(c2)OCO3)cc1 | 33.3% |
| COc1ccc(/C=C/c2cccc(OC(F)(F)F)c2)cc1 | 38.7% |
| COc1ccc(/C=C/c2ccc(NC(C)=O)c(F)c2)cc1 | 0.69% |

Name the recorded viability at 24 h, 1000 µM of the item "Oc1ccc(/C=C/c2cc(C(F)(F)F)cc(C(F)(F)F)c2)cc1" in your answer. -3.86%

Name the recorded viability at 24 h, 1000 µM of the item "COc1ccc(C#Cc2cc(C)cc(C)c2)cc1" in your answer. 22.1%

Name the recorded viability at 24 h, 1000 µM of the item "COc1cccc(/C=C/c2ccc(NC(C)=O)cc2)c1" in your answer. 11.9%

Name the recorded viability at 24 h, 1000 µM of the item "COc1cc(/C=C/c2ccc(NC(C)=O)cc2)cc(OC)c1" in your answer. 45.2%
